Answer each item with its documented recombinant barcode read abundance (log10).
- test: recombinant barcode read abundance after kanamycin selection (control-corrected) (log10(CPM+1)); higher = more efficient recombination; sequences stand for … in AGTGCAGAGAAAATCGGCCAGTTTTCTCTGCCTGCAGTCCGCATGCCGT…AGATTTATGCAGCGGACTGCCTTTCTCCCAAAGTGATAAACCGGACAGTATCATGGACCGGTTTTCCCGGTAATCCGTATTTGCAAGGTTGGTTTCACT; site = the 11-nt target
Give bare numbers.

A selection of reference data follows.
GGGTCCACTTGGGTTCTAACCTGTTGCCA (site GGGTCCACTCC) : 0.127
CTCGATTCTTGGGTTCTAACCTGTTGCAT (site CTCGATTCTAT) : 1.66
GGTAGGACTTGGGTTCTAACCTGTTGCCT (site AGTAGGACTAG) : 0.239

Moving on to another sequence below.
q: Name the reported recombinant barcode read abundance (log10) value associated with the sequence GACTCTCCTTGGGTTCTAACCTGTTGCAT (site GACTCTCCTAA)
a: 0.00987

====

- test: recombinant UMI read abundance after kanamycin selection (control-corrected) (log10(CPM+1)); higher = more efficient recombination; extreme values may be limits of the assay; sequences stand for … in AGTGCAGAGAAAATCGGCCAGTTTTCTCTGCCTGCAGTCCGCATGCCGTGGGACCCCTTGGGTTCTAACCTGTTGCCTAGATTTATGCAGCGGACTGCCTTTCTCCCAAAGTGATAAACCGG…AGGTTGGTTTCACT; site = the 11-nt donor
Field: recombinant UMI read abundance (log10). Provide a value for each of the sequences that follow.
Give bare numbers.

Check out these entries, answers already filled in.
ATGGAGACATGGACCGGTTTTCCCGGTAATCCGTATTTGTG (site ATGGAGACTCA) : 1.96
TACTTGACATGGACCGGTTTTCCCGGTAATCCGTATTTGCT (site TACTTGACTGG) : 0
TCCAAAGCATGGACCGGTTTTCCCGGTAATCCGTATTTGGA (site TCCAAAGCTTC) : 0.0225
CTAGTCTCATGGACCGGTTTTCCCGGTAATCCGTATTTGAC (site CTAGTGTCTGT) : 0
GTGCTGACATGGACCGGTTTTCCCGGTAATCCGTATTTGTT (site GTGCTGACTAA) : 0.314
ACGAAGCCATGGACCGGTTTTCCCGGTAATCCGTATTTGGG (site TCGAAGCCTCC) : 0.113

// batch mode: one recombinant UMI read abundance (log10) value per listed entry
1. GCCGAGCCATGGACCGGTTTTCCCGGTAATCCGTATTTGTA (site GCCGAGCCTTA)
2. ATGCAGACATGGACCGGTTTTCCCGGTAATCCGTATTTGTT (site ATGCAGACTAA)

a:
0.381
1.92

====

- test: recombinant UMI read abundance after kanamycin selection (control-corrected) (log10(CPM+1)); higher = more efficient recombination; extreme values may be limits of the assay; sequences stand for … in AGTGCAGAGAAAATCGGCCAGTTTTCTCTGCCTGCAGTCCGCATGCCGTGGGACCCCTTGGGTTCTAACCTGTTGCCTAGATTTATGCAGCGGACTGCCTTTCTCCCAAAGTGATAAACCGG…AGGTTGGTTTCACT; site = the 11-nt donor
measuredProperty: recombinant UMI read abundance (log10)
Answers are plain numbers.

AATATAGCATGGACCGGTTTTCCCGGTAATCCGTATTTGCC (site AATATAGCTGG) : 1.53
TCAGTATCATGGACCGGTTTTCCCGGTAATCCGTATTTGCA (site ACAGTATCTTG) : 1.93
CTCAAGACATGGACCGGTTTTCCCGGTAATCCGTATTTGGG (site CTCAAGACTCC) : 0

Proceed to the following item.
q: May I ask what recombinant UMI read abundance (log10) has been recorded for GAGGGTTCATGGACCGGTTTTCCCGGTAATCCGTATTTGCG (site GAGGGTTCTCG) ?
a: 2.63

====

- test: recombinant UMI read abundance after kanamycin selection (control-corrected) (log10(CPM+1)); higher = more efficient recombination; extreme values may be limits of the assay; sequences stand for … in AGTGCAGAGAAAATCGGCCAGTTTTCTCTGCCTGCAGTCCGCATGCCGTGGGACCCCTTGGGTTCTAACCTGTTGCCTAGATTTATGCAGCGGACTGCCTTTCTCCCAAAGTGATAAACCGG…AGGTTGGTTTCACT; site = the 11-nt donor
Respond with class 1 for recombinant UMI read abundance (log10) values of 0.5 and above, class 0 for values below.

Sample answers from the record:
AATGAGTCATGGACCGGTTTTCCCGGTAATCCGTATTTGAC (site AATGTGTCTGT) : class 1
GTCCTATCATGGACCGGTTTTCCCGGTAATCCGTATTTGGA (site GTCCTATCTTC) : class 1
CAATTCTCATGGACCGGTTTTCCCGGTAATCCGTATTTGAA (site CAATCCTCTTT) : class 0
TAGCATACATGGACCGGTTTTCCCGGTAATCCGTATTTGCA (site TAGGATACTTG) : class 0

q: Check the entry TCTTACTCATGGACCGGTTTTCCCGGTAATCCGTATTTGCA (site TCATACTCTTG) : does recombinant UMI read abundance (log10) equal or exceed 0.5?
a: class 0

====

Task for the reader: assign each of the following sequences its reported recombinant UMI read abundance (log10).
- test: recombinant UMI read abundance after kanamycin selection (control-corrected) (log10(CPM+1)); higher = more efficient recombination; extreme values may be limits of the assay; sequences stand for … in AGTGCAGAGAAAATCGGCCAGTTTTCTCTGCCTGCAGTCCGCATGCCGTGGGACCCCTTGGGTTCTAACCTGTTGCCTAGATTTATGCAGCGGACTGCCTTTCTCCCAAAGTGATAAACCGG…AGGTTGGTTTCACT; site = the 11-nt donor
Give bare numbers.

The following sequences have reported results that may help.
CGGGAACCATGGACCGGTTTTCCCGGTAATCCGTATTTGAT (site CGGGAACCTAG) : 0
TTAGCAGCATGGACCGGTTTTCCCGGTAATCCGTATTTGTG (site TTAGCGGCTCA) : 0.0104
TTCACCGCATGGACCGGTTTTCCCGGTAATCCGTATTTGCG (site TGCACCGCTCG) : 0.0109
CAAGCAGCATGGACCGGTTTTCCCGGTAATCCGTATTTGCT (site CAAGCTGCTAG) : 0.0658
CTTTACGCATGGACCGGTTTTCCCGGTAATCCGTATTTGTA (site CTTTACGCTTA) : 0.0146
GACAAACCATGGACCGGTTTTCCCGGTAATCCGTATTTGGA (site GACAAACCTGC) : 0
GTGGAGGCATGGACCGGTTTTCCCGGTAATCCGTATTTGTG (site GTAGAGGCTCA) : 1.94
ATTATCCCATGGACCGGTTTTCCCGGTAATCCGTATTTGCC (site ATTATCCCTGG) : 0.749

Would you mind listing recombinant UMI read abundance (log10) for each of the following sequences?
1. CAATGCGCATGGACCGGTTTTCCCGGTAATCCGTATTTGAA (site CAATGCCCTTT)
2. CGGCCCACATGGACCGGTTTTCCCGGTAATCCGTATTTGTG (site CGGCCCACTCA)
3. CTAGACTCATGGACCGGTTTTCCCGGTAATCCGTATTTGAC (site CTAGACTCTGT)
4. ACTGGATCATGGACCGGTTTTCCCGGTAATCCGTATTTGCA (site ACAGTATCTTG)
5. ATCCAAGCATGGACCGGTTTTCCCGGTAATCCGTATTTGAG (site ATTCAAGCTCT)
6. CGTGGGACATGGACCGGTTTTCCCGGTAATCCGTATTTGTT (site CGTGGAACTAA)
7. TTAGCTGCATGGACCGGTTTTCCCGGTAATCCGTATTTGTG (site TTCGCTGCTCA)

a:
1: 0.0173; 2: 0.024; 3: 3.29; 4: 0.973; 5: 0.0155; 6: 1.86; 7: 0.00425

Look up recombinant UMI read abundance (log10) for the entries below, preserving their order.
1. CTTGTTCCATGGACCGGTTTTCCCGGTAATCCGTATTTGGT (site GTTGTTCCTAC)
2. CAGTTGGCATGGACCGGTTTTCCCGGTAATCCGTATTTGGA (site CAGTTGGCTTC)
3. TTCACCGCATGGACCGGTTTTCCCGGTAATCCGTATTTGCG (site TTCACCGCTCG)
4. CGAGCAGCATGGACCGGTTTTCCCGGTAATCCGTATTTGCT (site CAAGCAGCTAG)
5. TAGTGAGCATGGACCGGTTTTCCCGGTAATCCGTATTTGGG (site TAGTGAGCTCC)
6. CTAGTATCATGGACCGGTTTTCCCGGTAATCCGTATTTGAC (site CTCGTATCTGA)
7. AGCAAGACATGGACCGGTTTTCCCGGTAATCCGTATTTGCA (site AGCAAGACTTG)

a:
[0.0201, 1.72, 0.0246, 1.13, 0.0293, 0, 2.01]

Kindly give each listed record's recombinant UMI read abundance (log10).
1. GTATGCACATGGACCGGTTTTCCCGGTAATCCGTATTTGTC (site GTATGCACTAA)
2. CTGCTACCATGGACCGGTTTTCCCGGTAATCCGTATTTGGT (site CTGCTACCTAC)

a:
1. 0.663
2. 0.00854
